Where do the numbers come from? From the supplement of paper PMC10127200.

# Tested on: HEPG2
# test-description: Euclidean distance of Cell Painting phenotypic profile (signed KS, 77 features) to DMSO centroid (dimensionless distance); higher = stronger phenotypic change vs DMSO (phenoactivity)
# measurement-context: 48 h; 5 or 10 uM (library dependent)
# binarize Euclidean distance: threshold 0.8 inclusive, high side 1 (yes), low side 0 (no)

INSERT INTO assay_data (compound, assigned_label) VALUES
  ('COc1cc([C@@H]2c3cc4c(cc3[C@H](O)[C@H]3COC(=O)[C@@H]23)OCO4)cc(OC)c1OC [Picropodophyllin (PPP)]', '1 (yes)'),
  ('Oc1ccc(Cl)cc1Cc1cc(Cl)ccc1O [Dichlorophene]', '0 (no)'),
  ('CC1(C)S[C@@H]2[C@H](N)C(=O)N2[C@H]1C(=O)O [6-Aminopenicillanic acid]', '0 (no)'),
  ('O=C1CCC[C@@H]2[C@H]3CCCN4CCC[C@@H](CN12)[C@@H]34 [(+)-Matrine]', '1 (yes)'),
  ('COc1cc(C)[nH]c(=O)c1CNC(=O)c1c(C)n([C@H](C)C2CCN(CC(F)(F)F)CC2)c2ccccc12', '0 (no)'),
  ('O=C(C[S+]([O-])C(c1ccccc1)c1ccccc1)NO (stereo not drawn) [Adrafinil]', '0 (no)');

###

# System: FB
# test-description: Euclidean distance of Cell Painting phenotypic profile (signed KS, 77 features) to DMSO centroid (dimensionless distance); higher = stronger phenotypic change vs DMSO (phenoactivity)
# measurement-context: 48 h; 5 or 10 uM (library dependent)
Structures can show the parent of a compound that is named as a salt.
measurement-label: Euclidean distance

INSERT INTO measurements (molecule, measurement_label, data_value) VALUES
  ('O=C1CC[C@@]2(O)[C@H]3Cc4ccc(O)c5c4[C@@]2(CCN3CC2CC2)[C@H]1O5 [Naltrexone HCl]', 'Euclidean distance', 0.982),
  ('Cc1ccc(-n2nccn2)c(C(=O)N2CCN(c3nc4cc(Cl)ccc4o3)CC[C@H]2C)c1', 'Euclidean distance', 0.9),
  ('N=C(N)NN [Aminoguanidine hydrochloride]', 'Euclidean distance', 0.888);

###

Entries annotated with measured Euclidean distance
# Test system: FB
# test-description: Euclidean distance of Cell Painting phenotypic profile (signed KS, 77 features) to DMSO centroid (dimensionless distance); higher = stronger phenotypic change vs DMSO (phenoactivity)
# measurement-context: 48 h; 5 or 10 uM (library dependent)
Counter-ions that a name gives are not always drawn.
measurement-label: Euclidean distance

INSERT INTO assay_data (molecule, data_value) VALUES
  ('Cc1cccc(Cc2c[nH]cn2)c1C [Detomidine HCl]', 0.994),
  ('CN1C[C@H](C(=O)N[C@]2(C)O[C@@]3(O)[C@@H]4CCCN4C(=O)[C@H](Cc4ccccc4)N3C2=O)C[C@@H]2c3cccc4[nH]cc(c34)C[C@H]21 [Dihydroergotamine Mesylate]', 1.05),
  ('CC(C)[N+](C)(CCC(C(N)=O)(c1ccccc1)c1ccccc1)C(C)C [Isopropamide Iodide]', 1.25),
  ('O=C(CBr)N1CC([N+](=O)[O-])([N+](=O)[O-])C1', 0.833),
  ('Cc1cc2c(C(C)C)c(O)c(O)c(C=O)c2c(O)c1-c1c(C)cc2c(C(C)C)c(O)c(O)c(C=O)c2c1O', 1.05);
